From: ChEMBL document CHEMBL4483862

For each record, write down the corresponding IC90.
# Test system: Plasmodium berghei
# assay-remarks: Luciferase/luciferin-expressing antifolate-resistant parasites were used to infect a culture of HepG2 cells that were pre-incubated with compounds. Infected hepatocytes emit light due to the luciferase reaction. Assay results are presented as the percent inhibition of light emission compared to control. […]
# Type: functional
# conditions: sporozoite, read-out: LUCIFERASE INFECTION ASSAY - IC90

// returns reported IC90 for input CCN(CC)S(=O)(=O)c1ccc(C(=O)c2c(C)c(C(=O)C(F)(F)F)c3ccccn23)cc1
> 10 µM

Request the reported IC90 associated with O=C(Nc1ccnn1Cc1cccc(Cl)c1)c1csc(-c2ccsc2)n1
> 10 µM

Quick one: IC90 of O=C(c1ccc(OCc2cccnc2)cc1)N1CCc2ccccc21 ?
> 10 µM

====

Exercise: state measured IC90 for each of the compounds provided.
# Test system: Plasmodium berghei
# assay-remarks: Luciferase/luciferin-expressing antifolate-resistant parasites were used to infect a culture of HepG2 cells that were pre-incubated with compounds. Infected hepatocytes emit light due to the luciferase reaction. Assay results are presented as the percent inhibition of light emission compared to control. […]
# Type: functional
# conditions: sporozoite, read-out: LUCIFERASE INFECTION ASSAY - IC90

Item CN(C)CCCNC(=O)c1ccc(-c2cn3c(-c4ccc(Cl)cc4)cnc3cn2)cc1 has what recorded IC90?
3.76 µM

Sample COc1ccc(C(=O)Nc2ccc3nc(-c4ccccc4)nn3c2)cc1F — what was its IC90?
> 10 µM

Quick check: IC90 of O=C(Nc1ccc2c(c1)OCO2)C1CCN(C(C(=O)c2c[nH]c3ccccc23)c2ccccc2)CC1 (stereo not given) ?
> 10 µM

// IC90 lookup, key: CC(=O)N1CCN(C(=O)CCC(=O)Nc2nc3ccccc3s2)CC1
> 10 µM

Name the reported IC90 value associated with the compound CC(C)CN(C(=O)COC(=O)/C=C/c1nc2ccccc2s1)c1c(N)n(Cc2ccccc2)c(=O)[nH]c1=O
3.98 µM

Returns the measured IC90 for the input compound. Input: CC(C)c1ccc(NC2=NN=C(c3cccs3)CS2)cc1
> 10 µM

Look up IC90 for this compound: CCOc1cc(/C=C/c2ccc3cccc(O)c3n2)cc(Br)c1O
3.78 µM

IC90 for O=C1Nc2ccc([N+](=O)[O-])cc2C1=C(c1nc2ccccc2s1)c1nc2ccccc2s1 ?
> 10 µM

Sample CC(C)c1cc(=O)oc2cc(OS(=O)(=O)c3cc(C(N)=O)n(C)c3)ccc12 — what was its IC90?
> 10 µM

Name the recorded IC90 for Cc1cc(NC(=O)C(C)n2nc(-c3cccs3)c3ccccc3c2=O)no1 (stereo not given) .
> 10 µM

Would you kindly share the measured IC90 for O=C(CN1CCN(C(c2ccc(F)cc2)c2ccc(F)cc2)CC1)Nc1nnc(-c2ccccc2)o1 ?
1.43 µM

Name the reported IC90 value associated with the compound Clc1ccc(-c2cnc3ccc(NCc4ccc5c(c4)OCO5)nn23)cc1
> 8.71 µM

Item under review: Cc1cc(C)c(-c2csc(NC(=O)Cc3ccccc3)n2)c(C)c1 . Reported IC90?
3.56 µM

If you can, please state the reported IC90 value of Cc1nn(-c2ccc(C(=O)N(Cc3ccccc3)Cc3nc(=O)c4ccccc4[nH]3)cc2)c(C)c1Cl .
3.52 µM

Name the recorded IC90 for Cn1ccc2cc(-c3cn4c(-c5ccccc5)cnc4cn3)ccc21 .
2.78 µM

# query: IC90 of entry S=C(N/N=C/c1ccccn1)Nc1ccc(Cl)c(Cl)c1
> 10.1 µM

Which IC90 value is on record for O=C(Nc1nc(CN2CCCCC2)cs1)c1ccc2[nH]c3c(c2c1)CCCC3 ?
> 10 µM

Field request: IC90 | item: Cc1ccc(NC(=O)N2[C@@H]3CC[C@@H](C3)[C@H]2c2nc3cccc(OCc4ccccc4)c3[nH]2)cc1
> 10 µM

State the recorded IC90 for this entry: CCc1c(C)sc2nc(SCC3COc4ccccc4O3)n(-c3ccc(C)c(C)c3)c(=O)c12 (stereo not given)
> 10 µM

Fill in: IC90 of O=C(NNC(=O)c1cnc2ccccn2c1=O)c1cc(Cl)ccc1O is ___
4.25 µM

Recorded IC90 of CCOc1cc(N2CCOCC2)c(OCC)cc1NC(=O)COc1ccc(-c2nnco2)cc1 , please.
> 10 µM

IC90 lookup needed for O=C(CCc1c[nH]c2ccccc12)Nc1ccc(N2CCc3sccc3C2)nc1 , thanks.
> 10 µM

Name the recorded IC90 for CCOc1ccc(CCC2CCN(C(=O)Cn3c(=O)[nH]c(=O)c4ccccc43)CC2)cc1 .
> 10 µM

Please give the measured IC90 for this compound: CC(C)(C)C(=O)Nc1ccccc1Sc1ccc([N+](=O)[O-])c(Sc2ccccc2NC(=O)C(C)(C)C)n1
> 6.13 µM

# lookup: IC90 of CCSc1nc(SCCCN(C)C)c2c3c(sc2n1)COC(C)(C)C3
> 8.3 µM

Param item = O=C(Nc1ccc(F)c(Cl)c1)Nc1csc(Cc2c(Cl)cccc2Cl)n1 ; retrieve measured IC90.
> 7.66 µM

Recorded IC90 for Brc1ccc(-[n+]2nc(-c3ccccc3)nn2-c2nn[nH]n2)cc1 , please?
4.45 µM

Bench note: what IC90 did COc1ccccc1CNC(=O)CSc1nnc(-c2ccccc2)c2ccccc12 show?
> 10 µM

Given the compound CCCCCCCc1ccc(C(=O)Nc2ccc(F)c(Cl)c2)cc1 , what is its reported IC90?
> 9.49 µM

Query (compound): CN(Cc1nc2ccccc2s1)C(=O)c1cc(-c2ccccc2)c(N2CCOCC2)s1 ; field requested: IC90
> 10 µM
